Tested on: DENV-2-eGFP reporter virus
Assay info: Cell-based anti-DENV-2 screening with DENV-2-eGFP reporter virus in BE(2)C cells
Set-up: species or system type 2 dengue virus
Condition description: Dengue virus, DENV2, BE(2)-C, 24 h, read-out: DENV-2 infection %
Readout type: activity at 3.125 µM (%)
Give the value, in units of %, as a plain number.

Lab note: "COc1ccc(S(=O)(=O)N(CCCC(=O)C2CCCCC2)c2ccccc2)cc1" gave activity at 3.125 µM of 63.3

Lab note: "COc1ccc(S(=O)(=O)N(CCCC(=O)C2CCC2)c2ccccc2)cc1" gave activity at 3.125 µM of 33

Lab note: "COc1ccc(S(=O)(=O)N(CCCC(=O)C2CCCCCC2)c2ccccc2)cc1" gave activity at 3.125 µM of 9.6

Lab note: "COc1ccc(S(=O)(=O)N(C)CCCC(=O)c2ccc(F)cc2)cc1" gave activity at 3.125 µM of 101

Lab note: "COc1ccc(S(=O)(=O)N(CCCC(=O)C2CCCCCC2)C2CCCCC2)cc1" gave activity at 3.125 µM of 65.7

Origin of values: patent US10494334B2
